- assayed.system: UniProt:Q92731
- test.summary: Activation of human estrogen receptor beta expressed in HEK293 cells at 10 uM beta-galactosidase reporter gene assay relative to 3,17-beta-estradiol
- Type: cell-based
Measured Activity, listed per entry for reference.
Quick note: give the figure in %, leave out the unit.

>>> measured_number("c1ccc(CCC2=NOC(Cc3ccccc3)C2)cc1 (stereo not given)")
1.3
>>> measured_number("COC(CC(=O)Cc1ccccc1)Cc1ccc2ccccc2c1 (racemic)")
4.7
>>> measured_number("COc1cc2ccccc2cc1CC(CC(=O)Cc1ccc2ccccc2c1)OC (stereo not given)")
2
>>> measured_number("CS(C)=C(C(=O)CCCc1ccccc1)C(=O)Cc1ccccc1")
-1.7
>>> measured_number("Oc1ccccc1CCC1=NOC(Cc2ccc(F)cc2)C1 (single isomer, unassigned; 73a)")
3.4

Just so you know, measured Activity for O=C(CC(=O)c1ccccc1)Cc1ccccc1 came out at 9.7

Just so you know, measured Activity for COC(CC(=O)CCc1ccccc1)Cc1cccc2ccccc12 (stereo not given) came out at 2

====

- assayed.system: Estrogen receptor beta (Homo sapiens) (UniProt Q92731)
- Sequence (Q92731 whole entry): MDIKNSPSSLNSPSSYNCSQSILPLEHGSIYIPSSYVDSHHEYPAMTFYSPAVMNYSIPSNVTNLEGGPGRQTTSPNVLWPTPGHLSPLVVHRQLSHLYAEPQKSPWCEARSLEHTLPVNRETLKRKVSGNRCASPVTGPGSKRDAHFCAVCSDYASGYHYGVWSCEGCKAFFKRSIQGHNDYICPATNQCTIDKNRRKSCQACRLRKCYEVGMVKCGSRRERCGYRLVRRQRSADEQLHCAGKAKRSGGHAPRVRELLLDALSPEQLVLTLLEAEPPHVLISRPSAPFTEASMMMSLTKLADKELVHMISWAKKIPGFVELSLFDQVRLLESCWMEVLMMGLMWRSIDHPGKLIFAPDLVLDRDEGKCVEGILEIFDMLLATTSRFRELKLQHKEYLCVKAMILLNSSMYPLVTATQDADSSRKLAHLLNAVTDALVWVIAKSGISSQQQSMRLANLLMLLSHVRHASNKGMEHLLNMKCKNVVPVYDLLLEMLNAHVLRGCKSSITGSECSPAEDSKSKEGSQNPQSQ
- test.summary: Activation of human estrogen receptor beta expressed in HEK293 cells at 10 uM beta-galactosidase reporter gene assay relative to 3,17-beta-estradiol
- Format: cell-based
Measured Activity, listed per entry for reference.
Quick note: give the figure in %, leave out the unit.

Answered examples (6):
>>> measured_number("O=C(CCc1ccccc1)CC(=O)Cc1ccccc1")
1.4
>>> measured_number("c1ccc(CCCC2=NOC(Cc3ccccc3)C2)cc1 (single isomer, unassigned)")
5.1
>>> measured_number("O=C(Cc1ccccc1)CC(O)CCc1ccccc1 (configuration not stated)")
0.2
>>> measured_number("Oc1ccc(CCC2=NOC(Cc3ccc(F)cc3)C2)cc1 (configuration not stated)")
4.4
>>> measured_number("c1ccc(CCC2=NOC(CCc3ccccc3)C2)cc1 (single isomer, unassigned; 18a)")
0.2
>>> measured_number("O=C(CC(=O)Cc1ccccc1)Cc1ccccc1")
0.1

Measured Activity (Estrogen receptor beta (Homo sapiens) (UniProt Q92731)), entry COC(CCc1ccccc1)CC(=O)CCc1ccccc1 (configuration not stated) : 19.5

Measured Activity (Estrogen receptor beta (Homo sapiens) (UniProt Q92731)), entry CS(C)=C(C(=O)CCCc1ccccc1)C(=O)c1ccccc1 : 0

Measured Activity (Estrogen receptor beta (Homo sapiens) (UniProt Q92731)), entry Oc1ccc(CC2CC(CCc3ccccc3O)=NO2)cc1 (single isomer, unassigned; 75b) : 0.6

Measured Activity (Estrogen receptor beta (Homo sapiens) (UniProt Q92731)), entry Oc1cccc(CCC2=NOC(Cc3ccccc3)C2)c1 (configuration not stated) : -2.5

====

- assayed.system: Estrogen receptor beta (Homo sapiens)
- test.summary: Activation of human estrogen receptor beta expressed in HEK293 cells at 10 uM beta-galactosidase reporter gene assay relative to 3,17-beta-estradiol
- Type: cell-based
Measured Activity, listed per entry for reference.
Quick note: give the figure in %, leave out the unit.

Answered examples (10):
>>> measured_number("c1ccc(CCC2CC(Cc3ccccc3)=NO2)cc1 (stereo unspecified)")
1.2
>>> measured_number("COc1ccccc1CC(CC(=O)Cc1ccc2ccccc2c1)OC (single isomer, unassigned)")
0.3
>>> measured_number("O=C(CCc1ccccc1)CC(=O)CCc1ccccc1")
0.3
>>> measured_number("Oc1ccc(CC2CC(CCc3ccccc3)=NO2)cc1 (single isomer, unassigned; 69b)")
42.4
>>> measured_number("O=C(CCc1ccccc1)CC(O)Cc1ccccc1 (stereo unspecified)")
0.4
>>> measured_number("COC(CC(=O)Cc1cccc2ccccc12)Cc1cccc2ccccc12 (single isomer, unassigned; 64b)")
0.4
>>> measured_number("COc1ccccc1CC(=O)CC(Cc1cccc2ccccc12)OC (single isomer, unassigned; 63a)")
0
>>> measured_number("c1ccc(CCC2=NOC(CCc3ccccc3)C2)cc1 (single isomer, unassigned; 18b)")
-0.4
>>> measured_number("COc1ccccc1CC(=O)CC(Cc1ccc2ccccc2c1)OC (single isomer, unassigned; 66a)")
-0.5
>>> measured_number("Fc1ccc(CC2CC(CCc3ccccc3)=NO2)cc1 (single isomer, unassigned)")
7.4

Consider the record given below.
Just so you know, measured Activity for COc1ccccc1CC(=O)CC(Cc1cccc2ccccc12)OC (single isomer, unassigned; 63b) came out at -0.2
